Tested on: 743489-274-T-PDC complex spheroid viability;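 also: spheroids exposed to compounds for 7 days before readout; 100% = DMSO vehicle control wells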
Assay: Anticancer human tumor 743489-274-T-PDC patient-derived renal cell carcinoma cell line growth inhibition
Conditions: second compound 3.16 µM; first compound 0.00949 µM; stronger effect = lower value
reported metric: viability, T/C (%)
Give the value, in units of %, as a plain number.

Below, 6 compounds whose answers are already recorded.
1) Nc1ccn(C2OC(CO)C(O)C2(F)F)c(=O)n1 (centres undefined) + NC1CCC(NC2CC2c2ccccc2)CC1 = 85.2
2) NS(=O)(=O)OCC1CC(n2ccc3c(NC4CCc5ccccc54)ncnc32)CC1O (centres undefined) + NC1CC1c1ccc(-c2cccc(O)c2)cc1 = 96.5
3) O=C(C=Cc1cccc(S(=O)(=O)Nc2ccccc2)c1)NO + NC1CC1c1ccc(-c2cccc(O)c2)cc1 = 98.5
4) COc1cc(C2c3cc4c(cc3C(OC3OC5COC(C)OC5C(O)C3O)C3COC(=O)C23)OCO4)cc(OC)c1O (centres undefined) + NC1CC1c1ccc(-c2cccc(O)c2)cc1 = 87.9
5) NS(=O)(=O)OCC1CC(n2ccc3c(NC4CCc5ccccc54)ncnc32)CC1O (centres undefined) + NC1CCC(NC2CC2c2ccccc2)CC1 = 98.5
6) COc1cc(C2c3cc4c(cc3C(OC3OC5COC(C)OC5C(O)C3O)C3COC(=O)C23)OCO4)cc(OC)c1O (centres undefined) + NC1CCC(NC2CC2c2ccccc2)CC1 = 125

Query: Entry Nc1ncn(C2CC(O)C(CO)S2)c(=O)n1 (centres undefined) + NC1CCC(NC2CC2c2ccccc2)CC1 has what viability, T/C?
Reply: 96.8

Query: Follow-up item: Nc1ccccc1NC(=O)c1ccc(CNC(=O)OCc2cccnc2)cc1 + NC1CC1c1ccc(-c2cccc(O)c2)cc1
Reply: 92.8

Query: Follow-up item: O=C(C=Cc1cccc(S(=O)(=O)Nc2ccccc2)c1)NO + NC1CCC(NC2CC2c2ccccc2)CC1
Reply: 108
